- Experimental Target: Voltage-gated inwardly rectifying potassium channel KCNH2 (Homo sapiens)
- Sequence (Q12809 whole entry): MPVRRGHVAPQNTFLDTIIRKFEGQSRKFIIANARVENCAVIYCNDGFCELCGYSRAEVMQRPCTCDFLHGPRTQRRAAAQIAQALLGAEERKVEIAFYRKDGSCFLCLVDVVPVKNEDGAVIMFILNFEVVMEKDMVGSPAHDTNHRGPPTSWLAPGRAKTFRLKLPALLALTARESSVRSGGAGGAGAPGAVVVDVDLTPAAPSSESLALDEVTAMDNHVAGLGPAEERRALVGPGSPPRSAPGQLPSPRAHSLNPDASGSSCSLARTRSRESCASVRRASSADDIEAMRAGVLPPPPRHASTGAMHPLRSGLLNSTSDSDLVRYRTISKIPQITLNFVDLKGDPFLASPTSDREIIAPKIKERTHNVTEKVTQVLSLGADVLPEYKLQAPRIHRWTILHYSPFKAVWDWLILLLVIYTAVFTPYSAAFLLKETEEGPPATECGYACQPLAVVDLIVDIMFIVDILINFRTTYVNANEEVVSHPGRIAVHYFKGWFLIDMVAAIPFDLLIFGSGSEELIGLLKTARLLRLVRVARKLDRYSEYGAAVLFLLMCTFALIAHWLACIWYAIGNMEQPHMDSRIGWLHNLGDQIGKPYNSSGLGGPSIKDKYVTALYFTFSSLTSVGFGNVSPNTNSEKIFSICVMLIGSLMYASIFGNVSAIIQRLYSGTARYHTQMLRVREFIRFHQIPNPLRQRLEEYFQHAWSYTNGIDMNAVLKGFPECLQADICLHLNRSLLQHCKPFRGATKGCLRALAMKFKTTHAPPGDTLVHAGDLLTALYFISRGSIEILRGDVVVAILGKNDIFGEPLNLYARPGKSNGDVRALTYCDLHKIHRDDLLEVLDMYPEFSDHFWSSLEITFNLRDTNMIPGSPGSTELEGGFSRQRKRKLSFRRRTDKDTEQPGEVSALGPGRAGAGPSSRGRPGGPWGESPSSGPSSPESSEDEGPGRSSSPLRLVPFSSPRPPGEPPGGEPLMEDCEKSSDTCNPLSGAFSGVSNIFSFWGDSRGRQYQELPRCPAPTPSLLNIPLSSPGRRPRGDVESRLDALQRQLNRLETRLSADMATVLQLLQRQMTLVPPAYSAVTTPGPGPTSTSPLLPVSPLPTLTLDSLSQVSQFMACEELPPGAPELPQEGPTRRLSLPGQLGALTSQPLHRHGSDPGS
- Experiment Description: Inhibition of human ERG stably overexpressed in HEK293 cells incubated for 30 mins by FLIPR assay
- Format: toxicity, cell-based
- Experimental Setup: human, hek293, 0.5 h; time 30 min
Measured Metric: IC25 (µM)
The answer is to be given in µM; state only the numeric part.

# Compound, Experimental Target, IC25 [µM]
measured = [
    ("CS(=O)(=O)c1ccc(OCC2Cn3cc([N+](=O)[O-])nc3O2)cc1 (stereo not drawn)", "Voltage-gated inwardly rectifying potassium channel KCNH2 (Homo sapiens)", 15.2),
]

// below: IC25 requested for another compound
The reported IC25 of the compound `CSc1ccc(OC[C@H]2Cn3cc([N+](=O)[O-])nc3O2)cc1` was 3.1

----------
- Experiment Description: Selectivity ratio of IC50 for cytotoxicity against mouse peritoneal macrophage assessed as inhibition of cell growth to IC50 for antileishmanial activity against miltefosine resistant Leishmania donovani HU3MILR40 amastigotes infected in mouse peritoneal macrophage assessed as inhibition of parasite growth
- Assay type: toxicity, cell-based
- Experimental Setup: peritoneal macrophages, read-out: Ratio IC50
Measured selectivity ratio by item

In the examples that follow, each entry is paired with its recorded selectivity ratio.
# Compound, selectivity ratio
data = [
    ("CSc1ccc(OC[C@H]2Cn3cc([N+](=O)[O-])nc3O2)cc1", "> 143"),
    ("CSc1ccc(OC[C@@H]2Cn3cc([N+](=O)[O-])nc3O2)cc1", "> 220"),
]

// below: selectivity ratio requested for another compound
The reported selectivity ratio of the compound CSc1ccc(OCC2Cn3cc([N+](=O)[O-])nc3O2)cc1 (racemic) was > 250

----------
- Tested on: Leishmania braziliensis
- Experiment Description: Antileishmanial activity against wild type Leishmania braziliensis UA847 promastigotes […] assessed as inhibition of parasite growth incubated for 72 hrs by automatic microtiter plate reader analysis
- Format: functional, organism-based
Measured pIC50 by item
Units for pIC50: none; it is -log10 of a concentration expressed in mol/L.

# Molecule, Experimental Target, pIC50
records = [
    ("CCc1ccc(OCc2ncc([N+](=O)[O-])n2C)cc1", "Leishmania braziliensis", 5.41),
]

The reported pIC50 of the molecule Cn1c([N+](=O)[O-])cnc1COc1ccc(S(C)(=N)=O)cc1 (stereo not given) was 5.02

The reported pIC50 of the molecule `CSc1ccc(OC[C@H]2Cn3cc([N+](=O)[O-])nc3O2)cc1` was 5.85

The reported pIC50 of the molecule `Cn1c([N+](=O)[O-])cnc1COc1ccc(S(C)(=O)=O)cc1` was 5.23

----------
- Tested on: Leishmania amazonensis
- Experiment Description: Antileishmanial activity against wild type Leishmania amazonensis LV78 amastigotes infected in mouse peritoneal macrophage assessed as inhibition of parasite growth incubated for 72 hrs by giemsa staining based analysis
- Assay type: functional, organism-based
Measured Metric: IC50 (µM)
The answer is to be given in µM; state only the numeric part.

# Molecule, Observed Measurement
records = [
    ("CCCCCCCCCCCCCCCCOP(=O)([O-])OCC[N+](C)(C)C", 9.6),
    ("CSc1ccc(OC[C@H]2Cn3cc([N+](=O)[O-])nc3O2)cc1", 0.7),
    ("CSc1ccc(OC[C@@H]2Cn3cc([N+](=O)[O-])nc3O2)cc1", 0.6),
]

// below: IC50 requested for another molecule
The reported IC50 of the molecule CSc1ccc(OCC2Cn3cc([N+](=O)[O-])nc3O2)cc1 (racemic) was 0.7

----------
- Experiment Description: Metabolic stability in rat liver microsome assessed as parent compound remaining at 50 degreeC measured after 16 mins after heat treatment by HPLC analysis
- Experimental Setup: liver microsomes, heat-treated
Measured Metric: remaining at 16 min (%)
The answer is to be given in %; state only the numeric part.

The reported remaining at 16 min of the compound `CCc1ccc(OCc2ncc([N+](=O)[O-])n2C)cc1` was 16

----------
- Experiment Description: Metabolic stability in rat liver S9 fraction assessed as compound remaining at 20 uM measured after 32 mins in presence of NADP and GSH by HPLC analysis
- Type: ADME, subcellular
- Experimental Setup: read-out: Stability
Measured remaining at 32 min, 20 µM by item
The answer is to be given in %; state only the numeric part.

In the examples that follow, each entry is paired with its recorded remaining at 32 min, 20 µM.
# Molecule, remaining at 32 min, 20 µM [%]
rows = [
    ("Cn1c([N+](=O)[O-])cnc1C(=O)Nc1ccc(F)cc1C(F)(F)F", 100),
    ("CSc1ccc(Cn2ccn3cc([N+](=O)[O-])nc3c2=O)cc1", 100),
    ("Cn1c([N+](=O)[O-])cnc1COc1ccc(S(C)(=O)=O)cc1", 100),
]

The reported remaining at 32 min, 20 µM of the molecule `Cn1c([N+](=O)[O-])cnc1C(=O)N1CCS(=O)(=O)CC1` was 100

The reported remaining at 32 min, 20 µM of the molecule C[S+]([O-])c1ccc(C(=O)Nc2ccc3c(c2)B(O)OC3(C)C)cc1 (stereo not given) was 100

The reported remaining at 32 min, 20 µM of the molecule `CSc1ccc(C(=O)Nc2ccc3c(c2)B(O)OC3(C)C)cc1` was 61.3

The reported remaining at 32 min, 20 µM of the molecule `CSc1ccc(NC(=O)c2ncc([N+](=O)[O-])n2C)cc1` was 6.9

The reported remaining at 32 min, 20 µM of the molecule Cn1c([N+](=O)[O-])cnc1COc1ccc([S+](C)[O-])cc1 (stereo not given) [FEXINIDAZOLE SULFOXIDE] was 100

The reported remaining at 32 min, 20 µM of the molecule `CSc1ccc(OCc2nccn2C)cc1` was 100

The reported remaining at 32 min, 20 µM of the molecule C[S+]([O-])c1ccc(OCC2Cn3cc([N+](=O)[O-])nc3O2)cc1 (racemic) was 100

----------
Measured metabolised at 32 min by item
- Experiment Description: Metabolic stability in rat liver microsome assessed as drug metabolism measured up to 32 mins in absence of inhibitor by HPLC analysis relative to control
- Experimental Setup: liver microsomes, without inhibitor
The answer is to be given in %; state only the numeric part.

# Smiles Code, Measured Metric, Observed Measurement
data = [
    ("CSc1ccc(OCc2ncc([N+](=O)[O-])n2C)cc1", "metabolised at 32 min", 100),
]

The reported metabolised at 32 min of the compound `CCc1ccc(OCc2ncc([N+](=O)[O-])n2C)cc1` was 100

----------
- Experimental Target: UniProt Q12809
- Experiment Description: Inhibition of human ERG stably overexpressed in HEK293 cells at 100 uM incubated for 30 mins by FLIPR assay
- Assay type: toxicity, cell-based
- Experimental Setup: HEK293 cells stably overexpressing hERG
Measured Metric: inhibition at 0.5 h, 100 µM (%)
The answer is to be given in %; state only the numeric part.

The reported inhibition at 0.5 h, 100 µM of the compound `CSc1ccc(CCc2ncc([N+](=O)[O-])n2CCO)cc1` was 100

----------
- Experimental Target: hERG (KCNH2) (Homo sapiens, UniProt Q12809)
- Sequence (Q12809 whole entry): as above
- Experiment Description: Inhibition of human ERG stably overexpressed in HEK293 cells assessed as remaining activity at 6 uM incubated for 30 mins by FLIPR assay
- Type: toxicity, cell-based
- Experimental Setup: HEK293 cells stably overexpressing hERG, read-out: Activity
Measured Metric: activity at 0.5 h, 6 µM

In the examples that follow, each entry is paired with its recorded activity at 0.5 h, 6 µM.
# Compound, activity at 0.5 h, 6 µM
records = [
    ("CSc1ccc(OCc2ncc([N+](=O)[O-])n2C)cc1", "78%"),
    ("CSc1ccc(CCc2ncc([N+](=O)[O-])n2C)cc1", "64%"),
    ("CSc1ccc(OCC2Cn3cc([N+](=O)[O-])nc3O2)cc1 (racemic)", "81%"),
    ("CSc1ccc(OC[C@@H]2Cn3cc([N+](=O)[O-])nc3O2)cc1", "87%"),
    ("CSc1ccc(C(=O)Nc2ccc3c(c2)B(O)OC3(C)C)cc1", "66%"),
    ("CSc1ccc(OC[C@H]2Cn3cc([N+](=O)[O-])nc3O2)cc1", "46%"),
]

// below: activity at 0.5 h, 6 µM requested for another compound
The reported activity at 0.5 h, 6 µM of the compound `CSc1ccc(NCc2ncc([N+](=O)[O-])n2C)cc1` was 48%

----------
Measured IC50 at 72 h by item
- Experiment Description: Cytotoxicity against mouse peritoneal macrophage assessed as inhibition of cell growth incubated for 72 hrs by giemsa staining based analysis
- Type: toxicity
- Experimental Setup: peritoneal macrophages

# Compound, IC50 at 72 h
rows = [
    ("CSc1ccc(OC[C@@H]2Cn3cc([N+](=O)[O-])nc3O2)cc1", "> 88 µM"),
]

The reported IC50 at 72 h of the compound `CCc1ccc(OCc2ncc([N+](=O)[O-])n2C)cc1` was > 100 µM

The reported IC50 at 72 h of the compound `CSc1ccc(C(=O)Nc2ccc3c(c2)B(O)OC3(C)C)cc1` was > 100 µM
